- Tested on: HT-29
- protocol text: Cytotoxicity against human HT-29 cells
- Assay type: functional
- experimental parameters: read-out: ED50 (the source's name)
experimental readout: pEC50
Answers are plain numbers, as −log10 of the molar value.

Any idea what its pEC50 is? The compound is COc1ccc([C@]23Oc4cc(OC)cc(OC)c4[C@](O)(C2O)[C@@H](c2ccccc2)[C@@H]3C(=O)NCCCCNC(=O)/C(C)=C/CO)cc1 (stereo in doubt; 2) 6.34

---

- study system: Transcription factor p65 (Homo sapiens)
- protocol text: Inhibition of NF-kappaB p65 (unknown origin) by ELISA
experimental readout: ED50

As a guide, the following entries are already answered.
{"molecule": "CC1=CC(=O)CC(C)(C)[C@H]1CC[C@H](O)CO", "ED50": "> 20 µM"}
{"molecule": "CC(C)=CC(=O)[C@@H](O)[C@@H](C)[C@H]1CC[C@@]2(C)[C@@H]3CC[C@H]4C(C)(C)[C@@H](O)CC[C@@]45C[C@@]35CC[C@]12C", "ED50": "> 20 µM"}

# per-item lookup of ED50; items listed below
1. COC(=O)[C@H]1[C@@H](OC=O)[C@@]2(O)c3c(OC)cc(OC)cc3O[C@@]2(c2ccc(OC)cc2)[C@@H]1c1ccccc1
2. COC(=O)[C@H]1[C@@H](O)[C@@]2(OC)c3c(OC)cc(OC)cc3O[C@@]2(c2ccc3c(c2)OCO3)[C@@H]1c1ccccc1
3. CC1(C)[C@H](O)CC[C@]2(C)[C@H]3CC[C@@H]4[C@@H]([C@]5(C)CCC(=O)O5)CC[C@@]4(C)[C@]3(C)CC[C@@H]12 [CABRALEAHYDROXYLACTONE]
4. COc1ccc([C@@]23Oc4cc(OC)cc(OC)c4[C@]2(O)[C@H](O)C[C@H]3c2ccccc2)cc1

1: > 20 µM; 2: > 20 µM; 3: > 20 µM; 4: 0.005 µM
